// provenance: patent US8058243B2

- Tested on: murine neural precursor cells (neurosphere cultures)
- assay-details: HTS of LOPAC library against secondary neurosphere cultures, MTT proliferation assay at 3 μM, day 7 (z score, P value)
- Assay type: cell-based, mouse
- recorded-conditions: LOPAC primary screen, neurosphere MTT proliferation, 3 μM, day 7
observable: Z score
Form field (numeric): enter value without unit.

CC1CCN=C(N)S1.Cl (racemic) [(±)-AMT hydrochloride] : −2.366
CCCN1CCC[C@@H](c2cccc(O)c2)C1.Cl [S(−)-3PPP hydrochloride] : −0.421
Cl.Cl.OCCN1CCN(CC/C=C2/c3ccccc3Sc3ccc(C(F)(F)F)cc32)CC1 [cis-(Z)-Flupenthixol (7), cis-(Z)-Flupenthixol] : −8.822
COc1ccc(CNC(=O)/C=C/c2ccc3[nH]cc(CCN(C)C)c3c2)cc1 [GR 4661] : 0.102
COc1cc2ncnc(Nc3cccc(Cl)c3)c2cc1OC [Tyrphostin AG 1478] : 1.870
Cc1nc(N=Nc2cc(S(=O)(=O)[O-])c3cc([N+](=O)[O-])cc(S(=O)(=O)[O-])c3c2)c(COP(=O)([O-])[O-])c(C=O)c1O.[Na+].[Na+].[Na+].[Na+] [PPNDS tetrasodium] : −2.067

Query :: For the compound shown here, NCCCS(=O)(=O)O.[Na] [3-Amino-1-propanesulfonic acid sodium] , give the reported Z score.
Result :: −6.691

Query :: Similarly, CC(Oc1ccc(Oc2cnc3ccc(Cl)cc3n2)cc1)C(=O)O (centres unmarked) [XK469] ?
Result :: −9.355

====

- Tested on: murine neural precursor cells (neurosphere cultures)
- assay-details: HTS of LOPAC library against secondary neurosphere cultures, MTT proliferation assay at 3 μM, day 7 (z score, P value)
- Assay type: cell-based, mouse
- recorded-conditions: LOPAC primary screen, neurosphere MTT proliferation, 3 μM, day 7
Structures can show the parent of a compound that is named as a salt.
# Z score per entry
Form field (numeric): enter value without unit.

# example entries with known answers
Cc1ccc(O)c(N=Nc2ccccc2)n1 : −1.752
CC(=O)[C@H]1CC[C@H]2[C@@H]3CC[C@H]4C[C@H](O)CC[C@]4(C)[C@H]3C(=O)C[C@]12C : −0.808
Cl.c1ccc2sc(C3(N4CCCCC4)CCCCC3)cc2c1 [BTCP hydrochloride] : 0.836
NC(=O)c1cnccn1 [Pyrazinecarboxamide] : −1.617
O=C(CCCN1CCC(O)(c2ccc(Cl)cc2)CC1)c1ccc(F)cc1 : −0.740
CCCc1c(OCCCOc2ccc(OCC(=O)O)cc2)ccc(C(C)=O)c1O : 0.306
NC[C@@H]1O[C@H](O[C@H]2[C@@H](O)[C@H](O[C@@H]3[C@@H](O)[C@H](N)C[C@H](N)[C@H]3O[C@H]3O[C@H](CO)[C@@H](O)[C@H](O)[C@H]3N)O[C@@H]2CO)[C@H](N)[C@@H](O)[C@@H]1O.O=S(=O)(O)O [Paramomycin sulfate] : 0.821
CN(C)CCCN1c2ccccc2Sc2ccc(C(F)(F)F)cc21 [Triflupromazine hydrochloride] : −1.820

Continue with the compound presented below.
Query :: For the compound shown here, COC(=O)N1CCN(C(=O)Cc2ccc(Cl)c(Cl)c2)C(CN2CCCC2)C1.O=C(O)/C=C/C(=O)O (racemic) [GR-89696 fumarate] , give the reported Z score.
Result :: −0.779
